The origin of these recorded values is ChEMBL document CHEMBL5143562.

# target entity: Alpha-synuclein (Homo sapiens)
# experiment notes: Inhibition of alpha-Synuclein (unknown origin) aggregation assessed as time difference in midpoint of aggregation at compound to protein molar ratio of 1:1 incubated for 36 hrs under shaking condition and measured every 6 hrs by Thioflavin T based fluorescence assay relative to control
Decide using TIME: a value greater than or equal to 2 h is 1, a smaller one is -1.

Could you please find out whether `O=C(O[C@@H]1Cc2c(O)cc(O)cc2O[C@@H]1c1cc(O)c(O)c(O)c1)c1cc(O)c(O)c(O)c1` has TIME that meets 2 h or exceeds it?
1

Could you please find out whether `O=C1C=C(c2ccc(O)cc2)[C@]2(O1)O[C@]1(OC(=O)C=C1c1ccc(O)cc1)C(c1ccc(O)cc1)=C2c1ccc(O)cc1` has TIME that meets 2 h or exceeds it?
1

Could you please find out whether `O=C1C=C(c2ccc(O)cc2)[C@]2(O1)O[C@@]1(OC(=O)C=C1c1ccc(O)cc1)C(c1ccc(O)cc1)=C2c1ccc(O)cc1` has TIME that meets 2 h or exceeds it?
-1

Could you please find out whether `O=C1C=C(c2ccc(O)cc2)[C@]2(O1)O[C@]1(OC(=O)C=C1c1ccc(O)c(Br)c1)C(c1ccc(O)cc1)=C2c1ccc(O)cc1` has TIME that meets 2 h or exceeds it?
-1
